Biological target: mAChR M4 (UniProt P08173)
Construct: hM1 and hM4 cDNAs were purchased from Missouri S&T cDNA Resource
Sequence (P08173 1-479): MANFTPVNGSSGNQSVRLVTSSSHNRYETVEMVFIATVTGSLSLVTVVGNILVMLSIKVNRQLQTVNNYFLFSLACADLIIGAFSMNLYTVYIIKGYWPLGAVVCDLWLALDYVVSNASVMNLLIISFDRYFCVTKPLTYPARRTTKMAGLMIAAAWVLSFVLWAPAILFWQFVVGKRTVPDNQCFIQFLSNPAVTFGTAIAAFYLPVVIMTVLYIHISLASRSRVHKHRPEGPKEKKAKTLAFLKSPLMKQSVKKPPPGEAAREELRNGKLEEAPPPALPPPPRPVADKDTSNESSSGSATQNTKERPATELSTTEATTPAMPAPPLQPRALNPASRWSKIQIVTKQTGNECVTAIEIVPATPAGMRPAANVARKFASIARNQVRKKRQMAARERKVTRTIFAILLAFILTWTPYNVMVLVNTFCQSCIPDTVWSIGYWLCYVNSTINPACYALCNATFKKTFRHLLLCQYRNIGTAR
Assay: mAChR M4 cell-based functional assay (calcium mobilization, Fluo-4, FDSS)
Conditions: positive allosteric modulator activity: concentration-dependent increase in the EC20 acetylcholine response, CHO-K1 cells; >10 μM estimated for low potency (no plateau)
measure.name: EC50 (nM)
Answers are plain numbers, in nM.

Here's what some known entries look like.
Missing value: EC50, mAChR M4 (UniProt P08173), entry Cc1cc(C)c2c(n1)sc1c(NCc3cc(C#N)ccc3F)nn(C)c12 [Compound 91] . Fill in?
220

Missing value: EC50, mAChR M4 (UniProt P08173), entry Cc1cc(C)c2c(n1)sc1c(NCc3cccc4c3OCO4)nn(C)c12 [Compound 84] . Fill in?
190

Missing value: EC50, mAChR M4 (UniProt P08173), entry Cc1cc(C)c2c(n1)sc1c(NC3CCOC3)nn(C)c12 (stereo not shown) [Compound 103] . Fill in?
240

Missing value: EC50, mAChR M4 (UniProt P08173), entry Cc1cc(C)c2c(n1)sc1c(NCc3scnc3C)nn(C)c12 [Compound 93] . Fill in?
38

Missing value: EC50, mAChR M4 (UniProt P08173), entry Cc1ccc2c(n1)sc1c(NCc3ccc(Cl)cc3)n[nH]c12 [Compound 49] . Fill in?
3400

# batch size: 5; output EC50 per entry
1. Cc1ccc2c(n1)sc1c(NCc3ccncc3)nn(C)c12 [Compound 67]
2. Cc1cc(C)c2c(n1)sc1c(NCC3CCCN3)nn(C)c12 (stereo not shown) [Compound 86]
3. Cc1cc(C)c2c(n1)sc1c(NCc3ccccc3)nn(C)c12 [Compound 33]
4. Cc1cc(C)c2c(n1)sc1c(NCCC(C)C)n[nH]c12 [Compound 3]
5. Cc1cc(C)c2c(n1)sc1c(NC3CCSC3)nn(C)c12 (stereo not shown) [Compound 73]

1: 1100; 2: 1100; 3: 130; 4: 1240; 5: 87

---

Target: mAChR M4 (UniProt P08173)
Construct: hM1 and hM4 cDNAs were purchased from Missouri S&T cDNA Resource
Sequence (P08173 1-479): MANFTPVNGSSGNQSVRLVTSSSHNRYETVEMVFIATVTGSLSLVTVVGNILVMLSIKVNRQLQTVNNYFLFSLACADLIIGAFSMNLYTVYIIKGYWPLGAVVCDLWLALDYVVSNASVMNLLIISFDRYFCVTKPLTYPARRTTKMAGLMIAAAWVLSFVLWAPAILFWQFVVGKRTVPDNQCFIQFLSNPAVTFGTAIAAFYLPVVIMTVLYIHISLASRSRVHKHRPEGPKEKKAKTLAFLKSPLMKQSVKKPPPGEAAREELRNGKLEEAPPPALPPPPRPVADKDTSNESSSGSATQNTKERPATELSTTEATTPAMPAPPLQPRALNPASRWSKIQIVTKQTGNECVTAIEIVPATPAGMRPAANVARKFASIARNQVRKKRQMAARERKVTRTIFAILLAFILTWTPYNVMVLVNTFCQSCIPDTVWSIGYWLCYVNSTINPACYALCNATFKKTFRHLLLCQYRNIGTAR
Experiment: mAChR M4 cell-based functional assay (calcium mobilization, Fluo-4, FDSS)
Details: % ACh maximum at 30 μM
Method: Chinese hamster ovary (CHO-K1) cells stably expressing rat (r)M1 were purchased from the American Type Culture Collection and cultured according to their indicated protocol. […] Calcium flux was measured using the Functional Drug Screening System (FDSS) 6000 (Hamamatsu Corporation, Tokyo, Japan) as an increase in the fluorescent static ratio. […] Agonist activity was analyzed as a concentration-dependent increase in calcium mobilization upon compound addition. […]
measure.name: Emax (%)*
The reply should consist of the numeric value with the unit placed after it.

Here's what some known entries look like.
Look at this compound and give its reported Emax (%)*. Cc1cc(C)c2c(n1)sc1c(NCc3ccc(C)o3)nn(C)c12
84%

Look at this compound and give its reported Emax (%)*. Cc1cc(C)c2c(n1)sc1c(NCc3ccc(F)cc3)nn(C)c12
68%

Look at this compound and give its reported Emax (%)*. Cc1cc(C)c2c(n1)sc1c(NC3CNC3)nn(C)c12
69%

Look at this compound and give its reported Emax (%)*. Cc1nc2sc3c(NCc4ccc(F)c(F)c4)nn(C)c3c2c(C)c1Cl
46%

Look at this compound and give its reported Emax (%)*. Cc1cc(C)c2c(n1)sc1c(NC3CCN(C)C3)nn(C)c12 (stereo not drawn)
35%

# batch size: 3; output Emax (%)* per entry
1. Cc1cc(C)c2c(n1)sc1c(NC3CCOC3)nn(C)c12 (stereo not drawn)
2. Cc1cc(C)c2c(n1)sc1c(NCc3cc(C)on3)nn(C)c12
3. COc1ccc(CNc2nn(C)c3c2sc2nc(C)cc(C)c23)cc1

["67%", "59%", "72%"]

Look at this compound and give its reported Emax (%)*. Cc1cc(C)c2c(n1)sc1c(NCc3ccc(S(C)(=O)=O)cc3)nn(CCO)c12
73%
